- System Tested: CDK4/CyclinD3 (Homo sapiens, UniProt P11802)
- Sequence (P11802 whole entry): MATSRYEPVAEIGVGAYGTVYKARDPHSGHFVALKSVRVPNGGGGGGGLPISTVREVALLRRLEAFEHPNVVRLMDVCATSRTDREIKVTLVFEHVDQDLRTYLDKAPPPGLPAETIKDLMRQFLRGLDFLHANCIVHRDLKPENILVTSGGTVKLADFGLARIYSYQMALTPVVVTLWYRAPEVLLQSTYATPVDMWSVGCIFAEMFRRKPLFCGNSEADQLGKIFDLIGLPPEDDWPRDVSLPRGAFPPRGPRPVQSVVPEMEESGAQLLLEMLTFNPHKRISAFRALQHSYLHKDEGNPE
- Sequence (P30281 whole entry partner): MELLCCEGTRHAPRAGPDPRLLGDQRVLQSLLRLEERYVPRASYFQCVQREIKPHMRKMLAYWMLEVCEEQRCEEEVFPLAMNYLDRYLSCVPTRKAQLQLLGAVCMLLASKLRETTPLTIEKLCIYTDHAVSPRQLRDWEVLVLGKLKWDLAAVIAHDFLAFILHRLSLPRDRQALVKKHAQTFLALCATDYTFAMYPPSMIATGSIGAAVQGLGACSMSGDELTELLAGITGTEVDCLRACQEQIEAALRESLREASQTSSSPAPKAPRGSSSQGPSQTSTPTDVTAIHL
- Protocol Description: Kinase panel profiling (Reaction Biology Corp)
- Condition Info: CDK4/CyclinD3, kinase inhibition profile
Reported Endpoint: pIC50
As a rule, pIC50 stands for the negative log10 of the concentration, concentration in M.

Lookup: Consider the compound shown here: CC(=O)Oc1ccc(/C=C2\Sc3ccc(F)cc3NC2=O)cc1[N+](=O)[O-] [ON108110] What is its recorded pIC50?
Found: 7.82

----------
- System Tested: CDK6 (Homo sapiens, UniProt Q00534)
- Sequence (Q00534 whole entry): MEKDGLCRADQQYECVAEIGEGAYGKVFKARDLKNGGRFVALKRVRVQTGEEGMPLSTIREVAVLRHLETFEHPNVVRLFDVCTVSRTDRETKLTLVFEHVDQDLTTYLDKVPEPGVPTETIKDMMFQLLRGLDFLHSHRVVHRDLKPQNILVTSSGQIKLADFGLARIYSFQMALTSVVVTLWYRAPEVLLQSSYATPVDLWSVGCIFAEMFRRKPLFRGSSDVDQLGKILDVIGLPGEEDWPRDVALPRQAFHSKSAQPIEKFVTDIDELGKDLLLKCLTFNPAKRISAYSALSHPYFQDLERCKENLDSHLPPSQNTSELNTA
- Sequence (P24385 whole entry partner): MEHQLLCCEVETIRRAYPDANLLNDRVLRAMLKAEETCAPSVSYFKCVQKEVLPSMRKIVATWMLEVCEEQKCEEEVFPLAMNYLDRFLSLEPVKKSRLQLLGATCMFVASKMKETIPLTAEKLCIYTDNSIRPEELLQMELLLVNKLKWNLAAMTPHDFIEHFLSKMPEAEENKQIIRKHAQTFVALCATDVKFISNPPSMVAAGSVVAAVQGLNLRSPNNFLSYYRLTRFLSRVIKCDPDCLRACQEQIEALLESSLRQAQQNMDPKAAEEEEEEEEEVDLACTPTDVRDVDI
- Protocol Description: In vitro kinase assay with recombinant protein (32P-ATP, filtermat)
- Condition Info: recombinant CDK6, independent in vitro kinase assay, 20μM ATP
Reported Endpoint: pIC50
Scale: negative log10 of molar concentration, which is what pIC50 denotes.

Lookup: Tell me the measured pIC50 of `CC(=O)Oc1ccc(/C=C2\Sc3ccc(F)cc3NC2=O)cc1[N+](=O)[O-]` , please.
Found: 8.00
